Data origin, for the record: patent US20200339690A1

STUDY TARGET: T1, human LILRA2 (human, UniProt Q8N149 24-483)
T1 construct: Over-expressed on CHO-s cells; also called hLILRA2
T1 sequence (Q8N149 24-483 S135L limits assumed): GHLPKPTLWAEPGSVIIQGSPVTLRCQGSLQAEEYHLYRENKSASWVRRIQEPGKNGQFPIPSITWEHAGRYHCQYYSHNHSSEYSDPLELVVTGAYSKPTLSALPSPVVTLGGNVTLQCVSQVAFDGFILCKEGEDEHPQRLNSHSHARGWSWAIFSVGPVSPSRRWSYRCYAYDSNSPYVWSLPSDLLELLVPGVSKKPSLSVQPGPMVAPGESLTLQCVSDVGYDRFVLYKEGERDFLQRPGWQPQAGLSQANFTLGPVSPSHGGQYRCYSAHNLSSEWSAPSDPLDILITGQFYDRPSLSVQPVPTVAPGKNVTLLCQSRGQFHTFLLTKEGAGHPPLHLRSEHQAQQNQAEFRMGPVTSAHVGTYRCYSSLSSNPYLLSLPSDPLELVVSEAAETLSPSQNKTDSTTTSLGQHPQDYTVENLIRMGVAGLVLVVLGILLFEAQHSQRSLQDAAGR
EXPERIMENT: flow cytometry, LILRA2 CHOs
MEASUREMENT TYPE: binding (fold over iso)
Please reply with the bare figure in fold over iso and do not write the unit itself.

# BINDER, binding (fold over iso)
data = [
    ("J-03 (antibody, human IgG4 S228P, kappa, V domains shown, Human IgG4 chimera of murine origin) VH: QVQLQQSGAELVRPGASVTLSCKASGYKFTDYEMHWVKQTPVHGLEWIGAIDPETNGTAYNKKFKGKAILTADKSSSTAYMELRSLTSEDSAVYYCTRGDYDFSAWFAYWGQGTLVTVSA VL: DIVLTQSPASLAVSLGQRATISCRASESVDNYDISFMHWYQQKPGQPPKLLIYRASNLESGIPARFSGSGSRTDFTLTINPVETDDVATYYCQQSNKDPRTFGGGTKLEIKR", 1.58),
]

stdin: Fill in the blank: the reported binding (fold over iso) of J-11 (antibody, human IgG4 S228P, kappa, V domains shown, Human IgG4 chimera of murine origin; also called J-11.h) VH: QVQLQQSGAELMKPGASVKLSCKATGYILTGYWIEWVKQRPGHGLEWIGEILPGSGSTNYNENFKGKATFTADTSSNTAYMQLSSLTTEDSAIYYCARAVLGYFDYWGQGTTLTVSS VL: DIVMTQSHKFMSTSVGDRVSITCKASQDVSTAVAWYQQKPGQSPKLLIYWASTRHTGVPDRFTGSGSGTDYTLTISSVQAEDLALYYCHQHYSTYTFGGGTKLEIKR is ____.
stdout: -2.52
